Test system: HS 578T breast
ASSAY: NCI-60 one-dose screen, 48 h (100 = growth as untreated, 0 = no growth, -100 = all killed)
EXPERIMENTAL_CONDITIONS: 10 µM unless noted
The panel holds about 83,000 compounds, 20% with a hit somewhere; the sample as a whole holds those more often.
Labels assigned by growth range: low = under 30%, moderate = from 30% up to 70%, high = 70% and over

> print(dat)
                                   compound     group
1          CCCCCCCCCCCCC[N+](C)(C)Cc1ccccc1       low
2  COc1ccc2nc(NC(=O)CSc3nnc4n3S(=O)(=O)c3ccccc3N4c3ccccc3)sc2c1      high
3  NC(=NC1C2CC3CC(C2)CC1C3)Nc1ccc(I)cc1 (stereo not given)  moderate
4  c1ccc(-c2cc3n4c(-c5ccccc5)nn(-c5ccccc5)c4cnc-3n2)cc1  moderate
5  COc1cccc(C2=NN3C(C2)c2cc(Br)cc(OC)c2OC32CCN(Cc3ccccc3)CC2)c1 (stereo not given)      high
6  O=S(=O)(Nc1ccc(NS(=O)(=O)c2ccccc2)c(Cl)c1)c1ccccc1      high
7  Cc1cc(N2CCN(c3ccnc4cc(Cl)ccc34)CC2)nc(NC2CCCCC2)n1  moderate
8  CCOC(=O)c1sc2nc(-c3cccc(O)c3)nc(N3CCOCC3)c2c1C       low
